Target: Bcl-xL, Q07817
Sequence (Q07817 1-209): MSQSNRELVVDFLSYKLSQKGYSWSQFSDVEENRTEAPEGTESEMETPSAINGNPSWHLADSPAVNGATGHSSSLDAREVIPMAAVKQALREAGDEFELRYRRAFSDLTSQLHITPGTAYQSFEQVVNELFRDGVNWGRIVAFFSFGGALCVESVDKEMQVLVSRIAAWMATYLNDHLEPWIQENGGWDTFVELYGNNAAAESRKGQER
Assay: peptide SPOT array, c-Myc-tagged receptor at 1 uM or 100 nM, anti-c-Myc-Cy3
Please provide measured SPOT signal as a fraction of Bim BH3's signal on the same receptor and array for the entries that follow.
Give bare numbers.

Record excerpt, results attached:
>>> result("HRNTRNLAAFLGKASDLLRFPVKQLY [RP1L1]")
0.91
>>> result("RMIVDCVSSHLKKTGDGAKTFIIFLC [BBS10]")
1
>>> result("REEIRKVVQSLEQTAREILTLLQGVH [TSN]")
0.04
>>> result("SEIMHSFAKCIEVMLDGCLNNEHFEE [IPO5]")
0.1
>>> result("GLFSATSGVDLKYVADTFGQEVRPVS [DDX7]")
0.02

Lab note: each binder below needs its SPOT signal as a fraction of Bim BH3's signal on the same receptor and array filled in.
1. YRDLPLAAVDLSTAGSQLLSNLDEDY [C15orf27]
2. RCELQICGLAMADAGEYLCVCGQERT [OBSCN]

Completion:
0.02
0.01

Lab note: each binder below needs its SPOT signal as a fraction of Bim BH3's signal on the same receptor and array filled in.
1. KFRHDEIISLLKNVGERVVLEVEYEL [GRIP1]
2. AFGLGDLPNLLGLVLDQLGDTERKRR [ADAMTS14]
3. KGTAVAICRRLGIFLDTEDVAGKAYT [ATP2A3]
4. SQGDKRVAFFMRKGLDCLSKWVGESE [ATAD2]
5. SAGVPVRGVELQAAAERFARCFGRTD [TIGD7]
6. HERCQQPCKRLLICSHKCQEPCIGEC [ZNFX1]
7. AERHKQEADDIVRVAKTANDTSTEAY [LAMC1]

Completion:
1: 0.03; 2: 0.07; 3: 0.16; 4: 0.06; 5: 0.12; 6: 0.03; 7: 0.02

Lab note: each binder below needs its SPOT signal as a fraction of Bim BH3's signal on the same receptor and array filled in.
1. RYPILENPEIDRKTADDFLNRIALTD [CCNH]
2. VIKQRRLPDQLSKLADRIQLSGRYYL [RAPGEF2]

Completion:
1. 0.02
2. 1.08
